kon values for the binders below.
target: T1, cynomolgus PD-L1-His (Sino Biological, Cat. 90251-C08H) (cynomolgus, UniProt Q9NZQ7 19-238 (human entry)); assay: BLI (Gator), cynomolgus PD-L1
T1 construct: Bought protein; also called Cyno PD-L1; Cynomolgus PD-L1 ECD-His; not shown: His tag
T1 sequence (Q9NZQ7 other isoform, or with tags, fused parts or gaps C08H C08H limits assumed): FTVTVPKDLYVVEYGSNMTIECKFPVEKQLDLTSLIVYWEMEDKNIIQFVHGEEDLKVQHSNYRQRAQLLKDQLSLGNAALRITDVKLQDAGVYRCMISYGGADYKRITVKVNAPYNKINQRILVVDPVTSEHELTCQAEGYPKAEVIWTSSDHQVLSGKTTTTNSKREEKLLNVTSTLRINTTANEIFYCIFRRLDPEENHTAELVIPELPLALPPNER
Quick note: give the figure in M⁻¹ s⁻¹, leave out the unit.

# count of solved cases: 2
- binder: "57B10 (antibody, human IgG1, V domains shown) VH: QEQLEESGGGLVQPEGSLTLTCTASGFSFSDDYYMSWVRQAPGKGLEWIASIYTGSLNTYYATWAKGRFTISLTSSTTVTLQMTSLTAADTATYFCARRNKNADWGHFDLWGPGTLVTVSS VL: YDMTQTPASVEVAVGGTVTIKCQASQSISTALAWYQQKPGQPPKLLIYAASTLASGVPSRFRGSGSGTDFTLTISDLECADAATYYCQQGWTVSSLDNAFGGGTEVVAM"
  readoutNumber: 284000
- binder: "33E8 (antibody, human IgG1, V domains shown) VH: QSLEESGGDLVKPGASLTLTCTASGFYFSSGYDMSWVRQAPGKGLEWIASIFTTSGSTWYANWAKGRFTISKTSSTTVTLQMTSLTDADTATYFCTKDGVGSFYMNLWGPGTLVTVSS VL: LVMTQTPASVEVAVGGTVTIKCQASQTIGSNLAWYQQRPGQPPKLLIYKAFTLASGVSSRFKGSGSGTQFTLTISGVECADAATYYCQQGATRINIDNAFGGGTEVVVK"
  readoutNumber: 218000

Please find the next binder below.
Recorded kon (binder 28B3 (antibody, human IgG1, V domains shown) VH: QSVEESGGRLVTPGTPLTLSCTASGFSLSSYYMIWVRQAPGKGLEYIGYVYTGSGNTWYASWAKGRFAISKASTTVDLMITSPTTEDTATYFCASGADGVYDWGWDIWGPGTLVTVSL VL: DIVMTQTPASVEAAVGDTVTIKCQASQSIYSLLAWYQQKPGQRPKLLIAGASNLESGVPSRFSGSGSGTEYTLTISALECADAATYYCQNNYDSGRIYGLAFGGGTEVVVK ): 403000
